Data provenance: patent US12448369B2

Tested on: Porcine atria myofibrils (atrial myosin ATPase)
METHOD SUMMARY: Myofibril ATPase assay, porcine atria myofibrils
Type: biochemical
PROTOCOL CONDITIONS: porcine atria myofibrils; Y75 value (75% activity relative to no compound)
Values of Atrial EC25 strictly less than 0.9 µM map to Fulfilled, and values of at least 0.9 µM map to Not fulfilled.

Record excerpt, results attached:
MOLECULE	TEST SYSTEM	ANSWER LABEL
Cc1cc([C@@H](C)NC(=O)Cc2cc3c(C#N)nccc3[nH]c2=O)ncc1F [compound 470]	Porcine atria myofibrils (atrial myosin ATPase)	Not fulfilled
Cc1c(CC(=O)N[C@H](C)c2ccc(C#N)cn2)c(=O)[nH]c2ccnc(C(F)(F)F)c12 [compound 155]	Porcine atria myofibrils (atrial myosin ATPase)	Not fulfilled
Cc1c(CC(=O)N[C@@H](CO)c2ncc(F)cc2F)c(=O)[nH]c2ccnc(C(F)(F)F)c12 [compound 264]	Porcine atria myofibrils (atrial myosin ATPase)	Fulfilled
Cc1nccc2[nH]c(=O)c(CC(=O)N[C@@H]3CCc4cc(C#N)cc(F)c43)c(C)c12 (single isomer, unassigned) [compound 197]	Porcine atria myofibrils (atrial myosin ATPase)	Not fulfilled
Cc1nccc2[nH]c(=O)c([C@@H](C)C(=O)N[C@H](C)c3ncc(C#N)cc3F)c(C)c12 (single isomer, unassigned) [compound 191]	Porcine atria myofibrils (atrial myosin ATPase)	Not fulfilled
Cc1c(CC(=O)N[C@H](C)c2ccc(C#N)cn2)c(=O)[nH]c2ccc(OC(F)(F)F)nc12 [compound 449]	Porcine atria myofibrils (atrial myosin ATPase)	Not fulfilled
Cc1nccc2[nH]c(=O)c(C(F)(F)C(=O)N[C@@H](C)c3ccc(C#N)cc3F)c(C)c12 (single isomer, unassigned) [compound 3508]	Porcine atria myofibrils (atrial myosin ATPase)	Fulfilled
C[C@@H](NC(=O)Cc1c(C(F)(F)F)c2c(C3CC3)nccc2[nH]c1=O)c1ccc(C#N)cn1 (single isomer, unassigned) [compound 3005]	Porcine atria myofibrils (atrial myosin ATPase)	Not fulfilled

# strict comparison: is reported Atrial EC25 < 0.9 µM? input = Cc1c([C@H](C)C(=O)N[C@@H](C)c2ccc(C#N)cc2F)c(=O)[nH]c2ccnc(C#N)c12 (single isomer, unassigned) [compound 174] Fulfilled

# strict comparison: is reported Atrial EC25 < 0.9 µM? input = C[C@H](NC(=O)[C@@H](C)c1cc2c(Br)nccc2[nH]c1=O)c1ccc(F)cc1F (single isomer, unassigned) [compound 344] Not fulfilled

# strict comparison: is reported Atrial EC25 < 0.9 µM? input = Cc1nccc2[nH]c(=O)c(CC(=O)N[C@@H](C)c3ccncc3)c(C)c12 (single isomer, unassigned) [compound 334] Not fulfilled

# strict comparison: is reported Atrial EC25 < 0.9 µM? input = Cc1nccc2[nH]c(=O)c(CC(=O)N[C@@H](C)c3ccc(C#N)cc3F)c(F)c12 [compound 149] Fulfilled

# strict comparison: is reported Atrial EC25 < 0.9 µM? input = Cc1c(CC(=O)N[C@@H](CO)c2ncc(F)cc2F)c(=O)[nH]c2ccnc(C#N)c12 [compound 262] Fulfilled

# strict comparison: is reported Atrial EC25 < 0.9 µM? input = COc1nccc2[nH]c(=O)c(CC(=O)N[C@@H](C)c3ccc(F)cc3F)cc12 [compound 434] Fulfilled

# strict comparison: is reported Atrial EC25 < 0.9 µM? input = Cc1c(CC(=O)N[C@@H](C)c2ncc(C#N)cc2F)c(=O)[nH]c2ccc(O)nc12 [compound 166] Not fulfilled

====

Readings of Atrial EC25 for the listed molecules
Tested on: Porcine atria myofibrils (atrial myosin ATPase)
METHOD SUMMARY: Myofibril ATPase assay, porcine atria myofibrils
Type: biochemical
PROTOCOL CONDITIONS: porcine atria myofibrils; Y75 value (75% activity relative to no compound)
Unit µM implied. Number only.

# count of solved cases: 5
MOLECULE	Atrial EC25 (µM)
Cc1c(C(F)(F)C(=O)N[C@@H](CO)c2ncc(C#N)cc2F)c(=O)[nH]c2ccnc(C#N)c12 (single isomer, unassigned)	0.77
C[C@H](NC(=O)Cc1cc2cnccc2[nH]c1=O)c1ccc(F)cc1F	3.48
Cc1c(CC(=O)N[C@@H](C)c2ccc(F)cc2F)c(=O)[nH]c2ccnc(F)c12	0.05
Cc1c(CC(=O)N[C@H](C)c2ncc(F)cc2F)c(=O)[nH]c2ccc(O)nc12 (single isomer, unassigned)	100.00
Cc1nccc2[nH]c(=O)c(CC(=O)N[C@@H](C)c3cccnc3)c(C)c12 (single isomer, unassigned)	100.00

Assay Porcine atria myofibrils (atrial myosin ATPase), sample Cc1c(CC(=O)N[C@@H](CO)c2ccc(F)cc2F)c(=O)[nH]c2ccnc(C(F)(F)F)c12 , Atrial EC25 read: 0.47

Assay Porcine atria myofibrils (atrial myosin ATPase), sample Cc1cc(F)cc(F)c1[C@H](C)NC(=O)Cc1c(C)c2c(C)nccc2[nH]c1=O (single isomer, unassigned) , Atrial EC25 read: 40.23

====

TEST SYSTEM: Porcine ventricle myofibrils (ventricular myosin ATPase) (Sus scrofa)
Construct: Myofibrils from porcine cardiac muscle was isolated from the left ventricle of Yucatan minipigs; tissue Exemplar Genetics; host or cells: left ventricle of Yucatan minipigs, myofibrils prepared in house
Sequence (P79293 whole entry): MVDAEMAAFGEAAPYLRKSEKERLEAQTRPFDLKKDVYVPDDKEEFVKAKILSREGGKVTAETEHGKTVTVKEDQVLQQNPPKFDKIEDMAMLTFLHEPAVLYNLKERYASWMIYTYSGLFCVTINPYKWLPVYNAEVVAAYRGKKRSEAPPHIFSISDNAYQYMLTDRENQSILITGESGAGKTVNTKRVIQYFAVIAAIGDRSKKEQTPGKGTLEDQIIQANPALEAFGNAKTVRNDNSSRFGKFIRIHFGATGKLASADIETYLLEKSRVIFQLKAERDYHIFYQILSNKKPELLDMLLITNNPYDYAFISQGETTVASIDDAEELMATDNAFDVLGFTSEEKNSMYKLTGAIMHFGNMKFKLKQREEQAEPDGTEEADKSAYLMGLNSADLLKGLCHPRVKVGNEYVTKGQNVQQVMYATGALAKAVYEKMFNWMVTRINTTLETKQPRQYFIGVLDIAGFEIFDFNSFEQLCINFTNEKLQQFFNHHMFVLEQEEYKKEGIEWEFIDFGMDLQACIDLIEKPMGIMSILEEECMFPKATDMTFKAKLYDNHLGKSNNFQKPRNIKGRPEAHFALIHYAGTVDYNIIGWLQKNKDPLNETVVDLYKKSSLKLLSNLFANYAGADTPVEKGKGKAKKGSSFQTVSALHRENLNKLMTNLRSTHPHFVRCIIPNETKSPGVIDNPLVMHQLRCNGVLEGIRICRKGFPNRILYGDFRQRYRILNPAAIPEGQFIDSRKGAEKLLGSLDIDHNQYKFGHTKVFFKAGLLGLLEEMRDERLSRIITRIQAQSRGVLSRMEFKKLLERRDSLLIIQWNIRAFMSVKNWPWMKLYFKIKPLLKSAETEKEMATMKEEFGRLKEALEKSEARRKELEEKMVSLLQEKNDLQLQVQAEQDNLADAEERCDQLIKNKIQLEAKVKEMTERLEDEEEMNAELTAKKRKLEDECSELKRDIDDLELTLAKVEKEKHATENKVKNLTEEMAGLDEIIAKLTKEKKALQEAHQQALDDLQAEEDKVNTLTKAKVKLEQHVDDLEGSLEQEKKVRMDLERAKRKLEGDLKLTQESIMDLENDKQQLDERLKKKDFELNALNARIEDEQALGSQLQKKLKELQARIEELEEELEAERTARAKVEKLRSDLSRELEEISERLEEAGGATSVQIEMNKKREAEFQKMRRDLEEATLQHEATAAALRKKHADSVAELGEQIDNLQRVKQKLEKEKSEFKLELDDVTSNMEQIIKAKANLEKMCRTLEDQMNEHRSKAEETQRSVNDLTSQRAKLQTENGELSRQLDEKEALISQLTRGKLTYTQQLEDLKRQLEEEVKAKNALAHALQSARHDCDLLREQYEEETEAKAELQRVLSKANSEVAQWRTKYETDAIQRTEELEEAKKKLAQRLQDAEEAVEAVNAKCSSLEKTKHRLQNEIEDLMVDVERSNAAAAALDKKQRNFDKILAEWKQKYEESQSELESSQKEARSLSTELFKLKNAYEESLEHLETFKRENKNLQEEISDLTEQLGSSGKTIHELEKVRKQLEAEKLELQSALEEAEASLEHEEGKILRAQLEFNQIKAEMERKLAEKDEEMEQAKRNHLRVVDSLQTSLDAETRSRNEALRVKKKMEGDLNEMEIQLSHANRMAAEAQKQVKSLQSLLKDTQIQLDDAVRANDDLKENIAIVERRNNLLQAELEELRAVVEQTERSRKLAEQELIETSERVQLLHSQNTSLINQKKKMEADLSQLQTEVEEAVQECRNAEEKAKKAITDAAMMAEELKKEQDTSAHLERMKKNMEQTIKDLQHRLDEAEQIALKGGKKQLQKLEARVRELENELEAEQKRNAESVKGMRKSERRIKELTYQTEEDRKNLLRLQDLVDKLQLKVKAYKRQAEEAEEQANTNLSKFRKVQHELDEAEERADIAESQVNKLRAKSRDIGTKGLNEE
METHOD SUMMARY: Myofibril ATPase assay, porcine ventricle myofibrils
Format: biochemical, porcine (Yucatan minipigs)
PROTOCOL CONDITIONS: porcine ventricle myofibrils; Y75 value
Method: Example 1. Myofibril ATPase Assay Myofibril ATPase assays are known in the art to be useful in evaluating small molecules for the treatment of HCM and other cardiac indications. Myosin ATPase activity is assessed by using a coupled reaction system, in which ADP generated by the myosin ATPase function is coupled to the disappearance of NADH through the pyruvate kinase/lactate dehydrogenase (PK-LDH) system. […]
PROPERTY: Ventricular EC25 (µM)
Unit µM implied. Number only.

# count of solved cases: 2
MOLECULE	Ventricular EC25 [µM]
Cc1nccc2[nH]c(=O)c(CC(=O)N[C@@H](CO)c3ncc(C#N)cc3F)c(C)c12 (single isomer, unassigned)	3.01
Cc1nccc2[nH]c(=O)c(CC(=O)N[C@H](C)c3ccncc3)c(C)c12 (single isomer, unassigned)	100.00

Read the next record carefully.
Per the record, Cc1cccc([C@@H](C)NC(=O)Cc2c(C)c3c(C)nccc3[nH]c2=O)c1 (single isomer, unassigned) has Ventricular EC25 of 100.00

====

TEST SYSTEM: Porcine ventricle myofibrils (ventricular myosin ATPase) (Sus scrofa)
Construct: Myofibrils from porcine cardiac muscle was isolated from the left ventricle of Yucatan minipigs; tissue Exemplar Genetics; host or cells: left ventricle of Yucatan minipigs, myofibrils prepared in house
METHOD SUMMARY: Myofibril ATPase assay, porcine ventricle myofibrils
Type: biochemical, porcine (Yucatan minipigs)
PROTOCOL CONDITIONS: Y75 value (no ‡ mark); porcine ventricle myofibrils
PROPERTY: Ventricular EC25 (nM)
Unit nM implied. Number only.

COMPOUND	READOUT UNITS	VALUE REPORTED
Cc1c(CC(=O)N[C@@H](C)c2ccc(F)cc2F)c(=O)[nH]c2ccccc12 [compound 135]	nM	400
C[C@H](C(=O)N[C@H](C)c1ncc(C#N)cc1F)c1cc2c(F)c(F)ccc2[nH]c1=O (single isomer, unassigned) [compound 2599]	nM	16660
C[C@H](NC(=O)[C@H](C)c1cc2c(F)c(F)ccc2[nH]c1=O)c1ccc(F)cc1F (single isomer, unassigned) [compound 111]	nM	100000
Cc1c(C(F)(F)C(=O)N[C@H](C)c2ncc(C#N)cc2F)c(=O)[nH]c2cccc(C#N)c12 (single isomer, unassigned) [compound 2501]	nM	450
Cc1c(CC(=O)N[C@@H](C)c2ccc(C#N)cn2)c(=O)[nH]c2ccc(F)c(F)c12 [compound 46]	nM	120
N#Cc1ccc([C@@H](CO)NC(=O)Cc2c(C3CC3)c3cc(F)ccc3[nH]c2=O)c(F)c1 [compound 75]	nM	610

Read the next record carefully.
Per the record, Cc1c(CC(=O)N[C@@H](C)c2ccc(C#N)cc2F)c(=O)[nH]c2ccc(F)c(C(F)(F)F)c12 [compound 38] has Ventricular EC25 of 60

====

Test system: Porcine atria myofibrils (atrial myosin ATPase)
METHOD SUMMARY: Myofibril ATPase assay, porcine atria myofibrils
Assay type: biochemical
PROTOCOL CONDITIONS: Y75 value (no ‡ mark); porcine atria myofibrils
PROPERTY: Atrial EC25
Give the figure together with its unit, number first.

# count of solved cases: 2
COMPOUND	VALUE REPORTED
Cc1c(CC(=O)N[C@@H](C)c2ncc(C#N)cn2)c(=O)[nH]c2ccc(F)c(C3CC3)c12 (single isomer, unassigned)	450 nM
C[C@H](NC(=O)Cc1c(C#N)c2cc(F)ccc2[nH]c1=O)c1ncc(C#N)cc1F	180 nM

Read the next record carefully.
Per the record, Cc1c(F)ccc2[nH]c(=O)c(C(F)(F)C(=O)N[C@@H](C)c3ncc(C#N)cn3)c(C#N)c12 (single isomer, unassigned) has Atrial EC25 of 1530 nM
